Test system: biotinyl-Ile-oxazolone
Test details: self-aminoacylation, catalytic enhancement (BIO) (fold over background); higher = more active; k-Seq, kA / k0A0; sequences stand for … in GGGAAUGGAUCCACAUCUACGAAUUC…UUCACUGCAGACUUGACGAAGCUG
This sample holds only a part of the variants without activity.
Endpoint label: self-aminoacylation
Form: value (number only, do not type unit).

Given the sequence CCACAAUUCAAGCAAUCUGUC [Fam1B.1 aminoacylation ribozyme variant] and test system biotinyl-Ile-oxazolone, the measured self-aminoacylation is 0.576

Given the sequence CUACUUCGAACAUUCGGUCUG [Fam1A.1 aminoacylation ribozyme variant] and test system biotinyl-Ile-oxazolone, the measured self-aminoacylation is 1.29

Given the sequence AUUACCCUGAACAUCGAGUGA [Fam2.1 aminoacylation ribozyme variant] and test system biotinyl-Ile-oxazolone, the measured self-aminoacylation is 3.4

Given the sequence AUUACGCUGGUCAUCGAUUGA [Fam2.1 aminoacylation ribozyme variant] and test system biotinyl-Ile-oxazolone, the measured self-aminoacylation is 1.18

Given the sequence CUACUUCAAACAAUCGGGCUC [Fam1A.1 aminoacylation ribozyme variant] and test system biotinyl-Ile-oxazolone, the measured self-aminoacylation is 1.01

Given the sequence AUGCACCUAGUUCAUCGGGUG [Fam2.2 aminoacylation ribozyme variant] and test system biotinyl-Ile-oxazolone, the measured self-aminoacylation is 2.77

Given the sequence AAUCACCUAGGUCAUCGGCUG [Fam2.2 aminoacylation ribozyme variant] and test system biotinyl-Ile-oxazolone, the measured self-aminoacylation is 2.3

Given the sequence CCACACUUCCAGCAAUCGGCC [Fam1B.1 aminoacylation ribozyme variant] and test system biotinyl-Ile-oxazolone, the measured self-aminoacylation is 3.06

Given the sequence AUUGACCUAGGUUAUCGGGUG [Fam2.2 aminoacylation ribozyme variant] and test system biotinyl-Ile-oxazolone, the measured self-aminoacylation is 4.71

---

Tested on: biotinyl-Leu-oxazolone
Test details: self-aminoacylation, catalytic enhancement (BLO) (fold over background); higher = more active; k-Seq, kA / k0A0; sequences stand for … in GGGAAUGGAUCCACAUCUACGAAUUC…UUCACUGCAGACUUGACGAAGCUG
Fewer inactive variants are shown than the library holds.
I'd appreciate it if you could supply self-aminoacylation values for the items below.
Form: value (number only, do not type unit).

The sequence listed as AUUCACAUAGGUCAUCGGGCG [Fam2.2 aminoacylation ribozyme variant] has a reported self-aminoacylation of 3.11

The sequence listed as CUUACCCUGGUCAUCGAGUGG [Fam2.1 aminoacylation ribozyme variant] has a reported self-aminoacylation of 8.35

The sequence listed as AAGUUUGCUAAUAGGGGCAAG [Fam3.1 aminoacylation ribozyme variant] has a reported self-aminoacylation of 0.505

The sequence listed as AAGUUUGUUAAUAGUCUCAAG [Fam3.1 aminoacylation ribozyme variant] has a reported self-aminoacylation of 1.02

The sequence listed as UUUACCCUGGUCAUCGGGUGA [Fam2.1 aminoacylation ribozyme variant] has a reported self-aminoacylation of 37.2

The sequence listed as AAGUUUCCUAAUAGUCGCUAG [Fam3.1 aminoacylation ribozyme variant] has a reported self-aminoacylation of 1.39

The sequence listed as AUUCACCUGGGUCAUCGGGAG [Fam2.2 aminoacylation ribozyme variant] has a reported self-aminoacylation of 1.51

The sequence listed as CCCCACUUCAAGCAAUCGGUG [Fam1B.1 aminoacylation ribozyme variant] has a reported self-aminoacylation of 13.9

The sequence listed as AGGUUUGCUAUUAGUCGCAAG [Fam3.1 aminoacylation ribozyme variant] has a reported self-aminoacylation of 1.49
